Measured Ki (Carbonic anhydrase 9 (Homo sapiens))
Write the number in nM without appending the unit.

// solved cases for Ki follow
C#Cc1ccc(S(N)(=O)=O)cc1 = 54
CC(=O)OC[C@H]1O[C@@H](n2cc(-c3cccc(S(N)(=O)=O)c3)nn2)[C@H](OC(C)=O)[C@@H](OC(C)=O)[C@@H]1OC(C)=O = 480
CCC(=O)OC[C@H]1O[C@@H](n2cc(-c3ccc(S(N)(=O)=O)cc3)nn2)[C@H](OC(=O)CC)[C@@H](OC(=O)CC)[C@H]1OC(=O)CC = 5.1

Next molecule, Ki to be filled in.
Ask | Please tell me: Ki of NS(=O)(=O)c1ccc(-c2cn([C@@H]3O[C@H](CO)[C@H](O)[C@H](O)[C@H]3O)nn2)cc1 , system Carbonic anhydrase 9 (Homo sapiens)?
Reply | 126

---

The molecules listed here are annotated with their Activity.
# TEST TARGET: Albumin (Homo sapiens, UniProt P02768)
# Sequence (P02768 whole entry): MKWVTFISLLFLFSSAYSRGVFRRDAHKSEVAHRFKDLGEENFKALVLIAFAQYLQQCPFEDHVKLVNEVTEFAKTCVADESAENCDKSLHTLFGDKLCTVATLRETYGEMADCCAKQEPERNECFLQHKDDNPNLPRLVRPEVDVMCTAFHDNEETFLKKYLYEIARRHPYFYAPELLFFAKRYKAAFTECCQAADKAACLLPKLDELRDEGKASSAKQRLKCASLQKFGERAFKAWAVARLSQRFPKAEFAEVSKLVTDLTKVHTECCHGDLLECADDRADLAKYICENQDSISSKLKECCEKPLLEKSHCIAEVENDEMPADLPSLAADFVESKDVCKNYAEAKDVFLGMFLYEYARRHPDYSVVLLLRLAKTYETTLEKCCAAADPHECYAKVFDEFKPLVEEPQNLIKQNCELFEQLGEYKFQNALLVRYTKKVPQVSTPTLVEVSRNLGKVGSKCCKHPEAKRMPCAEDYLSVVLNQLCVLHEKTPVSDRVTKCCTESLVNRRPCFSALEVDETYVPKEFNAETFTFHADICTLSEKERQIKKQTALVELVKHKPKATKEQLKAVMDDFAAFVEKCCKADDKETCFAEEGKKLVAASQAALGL
# TEST METHOD NOTES: Binding affinity to human serum albumin by chromatographic analysis
# Assay type: ADME
# CONDITION CONTEXT: isolated protein
Write the number in % without appending the unit.

// solved cases for Activity follow
NS(=O)(=O)c1ccc(-c2cn([C@@H]3O[C@H](CO)[C@@H](O)[C@H](O)[C@H]3O)nn2)cc1 = 13
CCC(=O)OC[C@H]1O[C@@H](n2cc(-c3ccc(S(N)(=O)=O)cc3)nn2)[C@H](OC(=O)CC)[C@@H](OC(=O)CC)[C@@H]1OC(=O)CC = 77

Next molecule, Activity to be filled in.
Ask | Please tell me: Activity of CCCC(=O)OC[C@H]1O[C@@H](n2cc(-c3ccc(S(N)(=O)=O)cc3)nn2)[C@H](OC(=O)CCC)[C@@H](OC(=O)CCC)[C@@H]1OC(=O)CCC , system Albumin (Homo sapiens, UniProt P02768)?
Reply | 94

---

# TEST TARGET: UniProtKB P02768
# TEST METHOD NOTES: Binding affinity to human serum albumin by chromatographic analysis
# Format: ADME
# CONDITION CONTEXT: isolated protein
The compounds listed here are annotated with their Activity.

// solved cases for Activity follow
CC(C)CC(=O)OC[C@H]1O[C@@H](n2cc(-c3ccc(S(N)(=O)=O)cc3)nn2)[C@H](OC(=O)CC(C)C)[C@@H](OC(=O)CC(C)C)[C@@H]1OC(=O)CC(C)C = > 99%
CC(=O)OC[C@H]1O[C@@H](n2cc(-c3ccc(S(N)(=O)=O)cc3)nn2)[C@H](OC(C)=O)[C@@H](OC(C)=O)[C@@H]1OC(C)=O = 30%

Ask | Please tell me: Activity of CCCCC(=O)OC[C@H]1O[C@@H](n2cc(-c3ccc(S(N)(=O)=O)cc3)nn2)[C@H](OC(=O)CCCC)[C@@H](OC(=O)CCCC)[C@@H]1OC(=O)CCCC , system UniProtKB P02768?
Reply | > 99%

---

The compounds listed here are annotated with their microsomal CLint at 1 µM.
# TEST METHOD NOTES: Intrinsic clearance in human liver microsomes at 1 uM after 2 to 60 mins by LCMS analysis in presence of NADPH
# Format: ADME
# CONDITION CONTEXT: read-out: CLH

CC(C)CC(=O)OC[C@H]1O[C@@H](n2cc(-c3ccc(S(N)(=O)=O)cc3)nn2)[C@H](OC(=O)CC(C)C)[C@@H](OC(=O)CC(C)C)[C@@H]1OC(=O)CC(C)C = < 7 µL/min/mg
CCCCC(=O)OC[C@H]1O[C@@H](n2cc(-c3ccc(S(N)(=O)=O)cc3)nn2)[C@H](OC(=O)CCCC)[C@@H](OC(=O)CCCC)[C@@H]1OC(=O)CCCC = < 7 µL/min/mg

Ask | Any idea what microsomal CLint at 1 µM was measured for NS(=O)(=O)c1ccc(-c2cn([C@@H]3O[C@H](CO)[C@@H](O)[C@H](O)[C@H]3O)nn2)cc1 ?
Reply | < 7 µL/min/mg
